meta.source: PubChem BioAssay AID318

- System: BDF1 mice, P815 leukemia ip, survival T/C
- Assay notes: NCI In Vivo Anticancer Drug Screen. Data for tumor model P815 Mast Cell Leukemia (Ascitic) (intraperitoneal) in B6D2F1 (BDF1) mice
- Details: endpoint: survival time, mean or median; dose: 25.0 mg/kg/injection; schedule: Q01DX010 (ip); vehicle: saline; higher = longer survival
Toxic doses and inconclusive results are not listed.
Endpoint name: T/C

Item under review: O=C(Nc1ccc(C2=NCCN2)cc1)c1ccc(C(=O)Nc2ccc(C3=NCCN3)cc2)c(NC(=O)c2ccc(C(=O)Nc3cc(C(=O)Nc4ccc(C5=NCCN5)cc4)ccc3C(=O)Nc3ccc(C4=NCCN4)cc3)cc2)c1 . Reported T/C? 95 % of control

Item under review: CS(=O)(=O)OCCC(=O)N1CCN(C(=O)CCOS(C)(=O)=O)CC1 . Reported T/C? 222 % of control

Item under review: C[C@H]1C(=O)O[C@@H]2CCN3CC=C(COC(=O)[C@](C)(O)[C@@]1(C)O)[C@H]23 . Reported T/C? 100 % of control

Item under review: CCCNc1ncnc2[nH]ncc12 . Reported T/C? 95 % of control

Item under review: [I][Hg][CH2]C1COC([CH2][Hg][I])CO1 (centres undefined) . Reported T/C? 90 % of control

Item under review: CS(=O)(=O)OCC(O)C(O)C(O)C(O)COS(C)(=O)=O (centres undefined) . Reported T/C? 100 % of control

Item under review: COS(C)(=O)=O . Reported T/C? 100 % of control

Item under review: CSc1ncnc2nc[nH]c12 . Reported T/C? 100 % of control

Item under review: NC12CC3CC(CC(C3)C1)C2 . Reported T/C? 100 % of control

###

- Test system: BDF1 mice, P815 leukemia ip, survival T/C
- Assay notes: NCI In Vivo Anticancer Drug Screen. Data for tumor model P815 Mast Cell Leukemia (Ascitic) (intraperitoneal) in B6D2F1 (BDF1) mice
- Details: endpoint: survival time, mean or median; dose: 40.0 mg/kg/injection; schedule: Q01DX010 (ip); vehicle: saline; higher = longer survival
Inconclusive results and toxic doses are left out.
Endpoint name: T/C

Item under review: CN(C)c1ccc(/C=C/c2ccnc3ccccc23)cc1 . Reported T/C? 100 % of control

Item under review: S=P(N1CCOCC1)(N1CC1)N1CC1 . Reported T/C? 100 % of control

Item under review: N=C(N)SCc1c2ccccc2c(CSC(=N)N)c2ccccc12 . Reported T/C? 150 % of control

Item under review: CC1CCOS(=O)O1 (stereo not given) . Reported T/C? 100 % of control

Item under review: Cn1c(N)nc2nc[nH]c2c1=S . Reported T/C? 100 % of control
